The reported measurements were obtained from PubChem BioAssay (NCI).

Recorded growth inhibition by entry
Test: NCI Yeast Anticancer Drug Screen. Data for the cln2 rad14 strain (AID 165);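 note: 0% = growth equal to vehicle treated cultures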
Details: S. cerevisiae cln2 rad14 strain, at 50.0 µM, active compounds read high
This is part of a sample that, as a whole, favours compounds with a hit. Of some 79,000 tested, about 15% had one in any assay.
# unit: % | format: bare number

# input Form field: reported growth inhibition of CCOC(=O)C(C)(C(=O)OCC)n1cnc2c1c(=O)n(C)c(=O)n2C
# output 9.8

# input Proceed to O=C(N/N=C\c1ccc(Cl)cc1Cl)C1CC1
# output -19.2

# input Proceed to CC1(C)OC12C=CC1C2C2CCC1C21OC1(C)C (stereo unspecified)
# output 20.1

# input Proceed to CC1=C(C#N)C(=O)OC1(C)C1CCCC(=O)C1 (stereo unspecified)
# output -2.7
